target: c-fms (Homo sapiens); assay: c-fms autophosphorylation, fluorescence polarization competition immunoassay; format: biochemical; settings: test concentration 1 μM; 10 nM c-fms, 1 mM ATP; read-out: c-fms Autophosphorylation Percent Inhibition, % @ 1 μM
value type: inhibition at 1 µM (%)

CNC(=O)c1cn(C2CCCCC2)c2nc(NCCCN(C)C)ncc2c1=O = 26
NC(=O)c1cn(-c2ccc3c(c2)CCC3)c2nc(NCCCN3CCCC3)ncc2c1=O = 45

1: CONC(=O)c1cn(C2CCCCC2)c2nc(NCCCN3CCOCC3)ncc2c1=O
2: CONC(=O)c1cn(C2CCCCC2)c2nc(NCCCN(C)C)ncc2c1=O
Problem: Returns: the label, 1 or 2 , whose recorded inhibition at 1 µM is the lower number. Response format: the label of the selected entry.
Solution: 2
(2: 40%, 1: 60%)

---

target: c-fms (Homo sapiens, UniProt P07333); experiment: c-fms autophosphorylation, fluorescence polarization competition immunoassay; format: biochemical; conditions: test concentration 1 μM; 10 nM c-fms, 1 mM ATP; read-out: c-fms Autophosphorylation Percent Inhibition, % @ 1 μM
Sequence (P07333 20-972): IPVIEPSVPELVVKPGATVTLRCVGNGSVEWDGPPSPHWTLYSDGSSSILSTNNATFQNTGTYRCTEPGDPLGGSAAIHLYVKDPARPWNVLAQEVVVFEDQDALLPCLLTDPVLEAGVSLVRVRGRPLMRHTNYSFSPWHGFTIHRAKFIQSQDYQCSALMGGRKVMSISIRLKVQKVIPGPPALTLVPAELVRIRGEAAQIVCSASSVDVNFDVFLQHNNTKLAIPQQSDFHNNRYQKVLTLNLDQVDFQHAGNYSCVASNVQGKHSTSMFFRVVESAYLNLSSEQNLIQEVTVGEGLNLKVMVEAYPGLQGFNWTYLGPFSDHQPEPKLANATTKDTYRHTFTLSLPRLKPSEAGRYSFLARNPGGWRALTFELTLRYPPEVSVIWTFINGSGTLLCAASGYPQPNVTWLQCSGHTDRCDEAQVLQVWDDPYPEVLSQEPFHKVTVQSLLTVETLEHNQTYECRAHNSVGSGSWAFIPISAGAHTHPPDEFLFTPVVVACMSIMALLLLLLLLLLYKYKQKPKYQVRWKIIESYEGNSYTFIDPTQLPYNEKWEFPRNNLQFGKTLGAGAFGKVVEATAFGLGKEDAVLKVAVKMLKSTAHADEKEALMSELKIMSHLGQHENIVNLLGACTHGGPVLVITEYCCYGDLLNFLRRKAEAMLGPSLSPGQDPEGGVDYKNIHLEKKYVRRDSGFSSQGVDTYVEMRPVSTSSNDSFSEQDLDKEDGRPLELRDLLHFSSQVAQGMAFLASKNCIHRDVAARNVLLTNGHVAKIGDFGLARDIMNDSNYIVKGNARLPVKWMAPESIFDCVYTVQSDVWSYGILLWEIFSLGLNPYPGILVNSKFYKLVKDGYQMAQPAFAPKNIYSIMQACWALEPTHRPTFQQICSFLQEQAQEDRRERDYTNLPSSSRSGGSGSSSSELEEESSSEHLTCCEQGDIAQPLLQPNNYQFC
value type: inhibition at 1 µM (%)

NC(=O)c1cn(C2CCCCC2)c2nc(NCCN3CCOCC3)ncc2c1=O [Cpd 39] = 59
NC(=O)c1cn(C2CCCCC2)c2nc(NCCN3CCCC3)ncc2c1=O [Cpd 36] = 49
CONC(=O)c1cn(C2CCCCC2)c2nc(NCCCn3ccnc3)ncc2c1=O [Cpd 41] = 45
CONC(=O)c1cn(C2CCCCC2)c2nc(NCCCN3CCCC3)ncc2c1=O [Cpd 46] = 51
COCCNc1ncc2c(=O)c(C(N)=O)cn(-c3ccc4c(c3)CCC4)c2n1 [Cpd 10] = 41

a: CN1CCN(CCCNc2ncc3c(=O)c(C(N)=O)cn(-c4ccc5c(c4)CCC5)c3n2)CC1 [Cpd 1]
b: CNC(=O)c1cn(-c2ccc3c(c2)CCC3)c2nc(NCCN3CCOCC3)ncc2c1=O [Cpd 18]
c: CNC(=O)c1cn(C2CCCCC2)c2nc(NCc3cc(OC)cc(OC)c3)ncc2c1=O [Cpd 61]
Problem: Hey, quick one: sort these by inhibition at 1 µM, largest value first please. Ranked list of labels, please, in the requested order.
Solution: a, b, c
(a: 69.1%, b: 35%, c: 21%)

I: CONC(=O)c1cn(C2CCCCC2)c2nc(NCCc3ccc(OC)cc3)ncc2c1=O [Cpd 49]
II: CNC(=O)c1cn(C2CCCCC2)c2nc(NCCN3CCOCC3)ncc2c1=O [Cpd 60]
Problem: Task for the reader: decide whether I or II has the larger inhibition at 1 µM. Write down the label of the entry you select.
Solution: I

I: COCCCNc1ncc2c(=O)c(C(=O)NOC)cn(C3CCCCC3)c2n1 [Cpd 44]
II: CNC(=O)c1cn(C2CCCCC2)c2nc(NCCOC)ncc2c1=O [Cpd 57]
III: CNC(=O)c1cn(-c2ccc3c(c2)CCC3)c2nc(NCCOC)ncc2c1=O [Cpd 16]
IV: CNC(=O)c1cn(-c2ccc3c(c2)CCC3)c2nc(NCCCN(C)C)ncc2c1=O [Cpd 12]
Problem: Ordering: ascending inhibition at 1 µM. The response must list the labels following the requested ordering.
Solution: IV, II, III, I

a: CN(C)CCCNc1ncc2c(=O)c(C(N)=O)cn(C3CCCCC3)c2n1 [Cpd 29]
b: CNC(=O)c1cn(C2CCCCC2)c2nc(NCCCOC)ncc2c1=O [Cpd 56]
Problem: inhibition at 1 µM comparison. Which is larger, a or b ? Write the label of whichever entry you select.
Solution: a
(a: 65%, b: 23%)

I: NC(=O)c1cn(C2CCCCC2)c2nc(NCCN3CCCCC3)ncc2c1=O [Cpd 38]
II: COCCCNc1ncc2c(=O)c(C(=O)NOC)cn(-c3ccc4c(c3)CCC4)c2n1 [Cpd 21]
Problem: Could you kindly indicate whether I or II has the higher inhibition at 1 µM value? Bench note: the answer is the label of the chosen record.
Solution: II

---

target: c-fms (Homo sapiens, UniProt P07333); assay: c-fms autophosphorylation, fluorescence polarization competition immunoassay; type: biochemical; conditions: test concentration 0.1 μM; 10 nM c-fms, 1 mM ATP; read-out: c-fms Autophosphorylation Percent Inhibition, % @ 0.1 μM
value type: inhibition at 0.1 µM (%)

CN(C)CCCNc1ncc2c(=O)c(C(N)=O)cn(C3CCCCC3)c2n1 = 22

a: COCCCNc1ncc2c(=O)c(C(=O)NOC)cn(-c3ccc4c(c3)CCC4)c2n1
b: CONC(=O)c1cn(-c2ccc3c(c2)CCC3)c2nc(NCCN3CCCCC3)ncc2c1=O
Problem: I'd appreciate it if you could identify which of a and b has the greater inhibition at 0.1 µM. # reply format: chosen label
Solution: a

---

target: c-fms (Homo sapiens); test: c-fms autophosphorylation, fluorescence polarization competition immunoassay; assay type: biochemical; details: test concentration 0.1 μM; 10 nM c-fms, 1 mM ATP; read-out: c-fms Autophosphorylation Percent Inhibition, % @ 0.1 μM
value type: inhibition at 0.1 µM (%)

Please review the entries below; each comes with its answer.
CNC(=O)c1cn(-c2ccc3c(c2)CCC3)c2nc(NCCCN3CCCC3=O)ncc2c1=O = 5
CNC(=O)c1cn(C2CCCCC2)c2nc(NCCCOC)ncc2c1=O = 6

P: CNC(=O)c1cn(C2CCCCC2)c2nc(NCCCN(C)C)ncc2c1=O
Q: CONC(=O)c1cn(C2CCCCC2)c2nc(NCCc3ccc(OC)cc3)ncc2c1=O
R: NC(=O)c1cn(C2CCCCC2)c2nc(NCCN3CCCCC3)ncc2c1=O
Problem: Falling order of inhibition at 0.1 µM, please. Dear reader, please state the labels in the requested order.
Solution: Q, R, P
(Q: 38%, R: 19%, P: 6%)

---

biological target: c-fms (Homo sapiens, UniProt P07333); experiment: c-fms autophosphorylation, fluorescence polarization competition immunoassay; type: biochemical; conditions: test concentration 1 μM; 10 nM c-fms, 1 mM ATP; read-out: c-fms Autophosphorylation Percent Inhibition, % @ 1 μM
value type: inhibition at 1 µM (%)

Here's what some known entries look like.
COc1cc(CNc2ncc3c(=O)c(C(N)=O)cn(-c4ccc5c(c4)CCC5)c3n2)cc(OC)c1 = 50
CONC(=O)c1cn(-c2ccc3c(c2)CCC3)c2nc(NCCCn3ccnc3)ncc2c1=O = 70
CNC(=O)c1cn(C2CCCCC2)c2nc(NCCN3CCCCC3)ncc2c1=O = 11
COc1cc(CNc2ncc3c(=O)c(C(N)=O)cn(C4CCCCC4)c3n2)cc(OC)c1 = 47
CONC(=O)c1cn(C2CCCCC2)c2nc(NCc3cc(OC)cc(OC)c3)ncc2c1=O = 53
CNC(=O)c1cn(C2CCCCC2)c2nc(NCCCn3ccnc3)ncc2c1=O = 21

I: CONC(=O)c1cn(-c2ccc3c(c2)CCC3)c2nc(NCc3cc(OC)cc(OC)c3)ncc2c1=O
II: NC(=O)c1cn(C2CCCCC2)c2nc(NCCCN3CCOCC3)ncc2c1=O
Problem: Select one: I or II . Criterion: greater recorded inhibition at 1 µM. Pick one; state its label.
Solution: II
(II: 68%, I: 41%)

---

target: c-fms (Homo sapiens, UniProt P07333); test: c-fms autophosphorylation, fluorescence polarization competition immunoassay; type: biochemical; conditions: test concentration 1 μM; 10 nM c-fms, 1 mM ATP; read-out: c-fms Autophosphorylation Percent Inhibition, % @ 1 μM
value type: inhibition at 1 µM (%)

CONC(=O)c1cn(C2CCCCC2)c2nc(NCCCN3CCN(C)CC3)ncc2c1=O [Cpd 45] = 67

A: COCCNc1ncc2c(=O)c(C(N)=O)cn(C3CCCCC3)c2n1 [Cpd 35]
B: CNC(=O)c1cn(-c2ccc3c(c2)CCC3)c2nc(NCCCN3CCN(C)CC3)ncc2c1=O [Cpd 15]
Problem: When the recorded inhibition at 1 µM values are compared, which is smaller: that of A or that of B ? Identify your selection by its label.
Solution: B
